Listed here: items and their measured glycan array binding signal (z-score).
target: Gal(a1-3)Gal(b1-4)GlcNAc; assay: glycan array binding signal (z-score within array); higher = stronger binding; conditions: glycan notation: IUPAC condensed, linker removed
This is one part of a sample in which the strongest signals are shown more often than they occur.
Give the figure by itself; no unit, no explanation.

Past entries and their recorded results:
[
  {
    "binder": "DCL-1 (Homo sapiens), Q8IX05 (protein) MLRAALPALLLPLLGLAAAAVADCPSSTWIQFQDSCYIFLQEAIKVESIEDVRNQCTDHGADMISIHNEEENAFILDTLKKQWKGPDDILLGMFYDTDDASFKWFDNSNMTFDKWTDQDDDEDLVDTCAFLHIKTGEWKKGNCEVSSVEGTLCKTAIPYKRKYLSDNHILISALVIASTVILTVLGAIIWFLYKKHSDSRFTTVFSTAPQSPYNEDCVLVVGEENEYPVQFD",
    "glycan array binding signal (z-score)": 0.709
  },
  {
    "binder": "HFR-3 (Triticum aestivum) (protein) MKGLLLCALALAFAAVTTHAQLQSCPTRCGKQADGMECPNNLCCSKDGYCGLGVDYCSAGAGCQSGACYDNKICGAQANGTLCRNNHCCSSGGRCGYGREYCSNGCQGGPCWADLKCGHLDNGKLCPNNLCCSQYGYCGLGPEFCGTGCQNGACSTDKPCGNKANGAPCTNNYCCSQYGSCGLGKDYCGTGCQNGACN",
    "glycan array binding signal (z-score)": 0.079
  },
  {
    "binder": "AT1G15820(NC) (Arabidopsis thaliana) (protein) MAMAVSGAVLSGLGSSFLTGGKRGATALASGVGDAIAPFSFGSLLGTQLLLMGWVESKRWVDFFNPDSQSVEWATPWSKTAENFANYTGDQGYPGGRFFDPLGLAGKNRDGVYEPDFEKLERLKLAEIKHSRLAMVAMLIFYFEAGQGKTPLGALGL",
    "glycan array binding signal (z-score)": -0.211
  },
  {
    "binder": "MCL (Mus musculus), Q9Z2H6 (protein) MWLEESQMKSKGTRHPQLIPCVFAVVSISFLSACFISTCLVTHHYFLRWTRGSVVKLSDYHTRVTCIREEPQPGATGGTWTCCPVSWRAFQSNCYFPLNDNQTWHESERNCSGMSSHLVTINTEAEQNFVTQLLDKRFSYFLGLADENVEGQWQWVDKTPFNPHTVFWEKGESNDFMEEDCVVLVHVHEKWVWNDFPCHFEVRRICKLPGITFNWKPSK",
    "glycan array binding signal (z-score)": 3.06
  },
  {
    "binder": "HMGB1 (Homo sapiens), P09429 (protein) MGKGDPKKPRGKMSSYAFFVQTCREEHKKKHPDASVNFSEFSKKCSERWKTMSAKEKGKFEDMAKADKARYEREMKTYIPPKGETKKKFKDPNAPKRPPSAFFLFCSEYRPKIKGEHPGLSIGDVAKKLGEMWNNTAADDKQPYEKKAAKLKEKYEKDIAAYRAKGKPDAAKKGVVKAEKSKKKKEEEEDEEDEEDEEEEEDEEDEDEEEDDDDE",
    "glycan array binding signal (z-score)": -0.418
  },
  {
    "binder": "AAA (Anguilla anguilla), Q7SIC1 (protein) VIPEGYTQENVAVRGKATQSAQLRGEHAANSEASNAIDGNRDSNFYHGSCTHSSGQANPWWRVDLLQVYTITSVTITNRGDCCGERISGAEINIGQHLASNGVNNPECSVIGSMATGETKTFHCPAPMIGRYVVTYLPTSESLHLCEVEVNVDKPAAA",
    "glycan array binding signal (z-score)": -0.169
  }
]

Exercise: Quick one: glycan array binding signal (z-score) for SIGNR8 (Mus musculus) (protein) MAGEPEFHQSKNHEEEVTSGEQGFAEHDPEGLICSSKSLQGHLTQVPWLLLLLISLGLFLLMLATLVQVSRIRAYSQGQTQDQQGSSSLDKVAVPREQTHSGLEQIQQIQQQLTQFNASLAGLCRPCPWDWELFQGSCYLFSRTLGSWETSASSCEDLGAHLVIVNSVSEQRFMKYWNVRKNQRSWIGLSDHIHEGSWQWVDGSALKFSFWKEGEPNNDGDEDCVELFMDDWNDNKCTEQNFWVCEQPSAPCPHH ?
Solution: 3.18

Exercise: Quick one: glycan array binding signal (z-score) for his-Lectin-24A (Drosophila melanogaster) (protein) MFRLSVLVLNLLLVSHEFSAGTAKIEIQPLPALCNGYCFPTLKPVMEYVAIHQDKWNTCTEILANEARKDQIQLNIQLDALKADVSNIKASQLSKDEKLDRMEREQFAMHESLETINRYLTVKLDRTKLQLEAIKNTMDYMKAQMDGYFSAINGVQCLQPGFEKIGDRYFYIEEDVELNWLDAQAKCRRMGGHLASIKTKQEFDAIVEKLDDSKSYFLGVNENTKTGDFVSAASGKSCLYHEWGPGEPHHNNDQERCVSILRKLMHVGNCTYEKRFICQYGI ?
Solution: 0.285

Exercise: Quick one: glycan array binding signal (z-score) for SP8524D-bot-399-27-399 (Bacteroides ovatus) (protein) DAKYDTLDTHAYIEEALSSTSQKVTVQATGESFTTLNVHLSNLSSTDNHYKLVTDQSVLDTYNHINGTGYIMLPKDYYTLPETITVKAGQYAADALSIALKAFSQEMMKSGESYALPVKLVLQDGSISPMENTGTFVILAESIIEFSAPMFVGAPSLKANKFTESPETYSQYTIEVRFQVANTADRDRAVFKNGGDDANFILLRFEDPQSDNENYKAHSLVQIVGRNRLYLNPSNSFKPNEWQHLALVCDGSNYRLYINGVDSGVLSIPTGATTFSDVNWFCLGDDSYSRWGNCKILMSEARIWSVVRSASQIQNNMTQVSPKSVGLEAYWRFNEGQGNVFEDATGKGHTLTTSATPTWIDGILSTDKSTEWK ?
Solution: -0.463

Exercise: Quick one: glycan array binding signal (z-score) for M6PR (Bos taurus), P11456 (protein) MMSPLHSSWRTGLLLLLLFSVAVRESWQTEEKTCDLVGEKGKESEKELALLKRLTPLFNKSFESTVGQSPDMYSYVFRVCREAGNHSSGAGLVQINKSNGKETVVGRFNETQIFNGSNWIMLIYKGGDEYDNHCGREQRRAVVMISCNRHTLADNFN ?
Solution: -0.036

Exercise: Quick one: glycan array binding signal (z-score) for Cohesin-hDCIR (Homo sapiens) (protein) LDDLDAVRIKVDTVNAKPGDTVRIPVRFSGIPSKGIANCDFVYSYDPNVLEIIEIEPGDIIVDPNPDKSFDTAVYPDRKIIVFLFAEDSGTGAYAITKDGVFATIVAKVKEGAPNGLSVIKFVEVGGFANNDLVEQKTQFFDGGANVGDTTEPATPTTPVTTPTTTDDLDAASQKYSQLLEKKTTKELVHTTLECVKKNMPVEETAWSCCPKNWKSFSSNCYFISTESASWQDSEKDCARMEAHLLVINTQEEQDFIFQNLQEESAYFVGLSDPEGQRHWQWVDQTPYNESSTFWHPREPSDPNERCVVLNFRKSPKRWGWNDVNCLGPQRSVCEMMKIHLHHHHHH ?
Solution: -0.455
